- measurementTarget: human DLL3 on DMS-153 cells (human) (UniProt Q9NYJ7)
- Sequence (Q9NYJ7 27-618 limits assumed): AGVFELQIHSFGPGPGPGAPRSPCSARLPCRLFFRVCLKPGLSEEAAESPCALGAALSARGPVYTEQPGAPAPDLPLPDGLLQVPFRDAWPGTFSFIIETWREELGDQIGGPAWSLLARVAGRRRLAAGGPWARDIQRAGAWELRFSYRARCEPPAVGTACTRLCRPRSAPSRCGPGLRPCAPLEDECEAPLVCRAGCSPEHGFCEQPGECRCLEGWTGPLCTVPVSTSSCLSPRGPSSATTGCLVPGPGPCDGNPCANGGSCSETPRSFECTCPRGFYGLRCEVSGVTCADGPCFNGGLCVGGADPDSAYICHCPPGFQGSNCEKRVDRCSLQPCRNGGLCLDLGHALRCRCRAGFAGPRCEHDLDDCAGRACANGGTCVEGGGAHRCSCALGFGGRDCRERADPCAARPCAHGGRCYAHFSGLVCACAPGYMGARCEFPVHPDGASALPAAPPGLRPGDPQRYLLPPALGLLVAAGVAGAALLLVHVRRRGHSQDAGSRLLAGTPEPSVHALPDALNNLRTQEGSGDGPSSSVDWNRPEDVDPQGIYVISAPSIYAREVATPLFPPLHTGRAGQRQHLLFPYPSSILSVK
- assayExplanation: cell-based or functional assay
recordedEndpoint: DMS-153 TDCC EC50 (conditioned medium, human T cells)

# binder, recordedValue
measured = [
    ("anti-DLL3 trispecific protein, DLL3 binder 2A04 (protein, part only; not given: CD3 binder and albumin binder, part only) chain, part: EVQLVESGGGLVQPGGSLTLSCVASGSTSSINAMAWYRRAPGKQRELVAGISSDGSKVYTDSVKGRFTISRDNAKNSVYLQMNSLRAEDTAVYYCYYFRTTSGSSMRYWGQGTLVTVSSGGGGSGGGSGGGGSGGGSHHHHHH", "0.081 nM"),
]
